Just for reference, ChEMBL document CHEMBL5661955 is where these values come from.

test protocol: Functional metabolic assay to measure dose dependent changes in cell viability from drug treatment in Vero E6/TMPRSS2 cells. Cells are treated with antiviral candidates that have been serially diluted. Cytotoxicity is reported via measuring absorbance and analysis of MTT/MTS assays in uninfected cells. The assay has been performed by Icahn School of Medicine at Mount Sinai.
Format: toxicity, cell-based, VeroE6/TMPRSS2
setup conditions: chlorocebus sabaeus, veroe6/tmprss2
observed property: CC10

So what does the record say about CC10 for CC(C)CNC(=O)c1cc(Cl)c(F)cc1NS(=O)(=O)c1ccc(Oc2ccccc2Cl)cc1 ?
> 50 µM

How about this molecule: O=C(Nc1ccc2c(c1)B(O)OC2)c1cccc(OCc2c(Cl)cccc2Cl)c1
> 50 µM

How about this molecule: c1cc(C2CCN(Cc3c[nH]c4ccccc34)CC2)c2ccncc2c1
> 50 µM

How about this molecule: CC[C@@H](Cc1nnn[nH]1)c1ccc(NC(=O)c2cc(Cl)cc(NC(=O)OCc3ccccc3)c2)cc1
> 50 µM

How about this molecule: COc1cc(N[C@@H](C(=O)c2c[nH]c3ccc(OC(F)(F)F)cc23)c2ccc(Cl)cc2OC)cc(S(C)(=O)=O)c1
> 10 µM

How about this molecule: O=C(Nc1cc(Cl)cc(C(=O)Nc2cccc(-n3nn[nH]c3=O)c2)c1)OCc1ccccc1
> 50 µM
